The measurements presented in this section are drawn from patent US20200002434A1.

Listed below: pEC50 values for each entry.
molecular target: T1, recombinant human ErbB2 extracellular domain (ErbB2-ECD) (human, UniProt P04626 23-652); assay: capture ELISA, coated antibody, biotin-human ErbB2-ECD titrated
T1 construct: extracellular domain; Coated on plates or used biotin-labeled in solution (capture ELISA); also called Human ErbB2-ECD; rhErbB2
pEC50: −log10 of the molar value.

BINDER	pEC50
4C9 mouse anti-ErbB2 monoclonal antibody (antibody, mouse IgG1, V domains shown, also called 4C9G3F5; IgG 4C9) VH: QVQLQQSGAELARPGASVKMSCKASGYTFTSYTMHWVKQRPGQGLDWIGYINPSSGYTTYNQKFKDKATLTADKSSSTAYMQLSSLASADSAVYYCARASAYSLDYWGQGTTLTVSS VL: DIQMTQSPSSLSASLGGRVTITCKASHDIDRYIAWYQHKPGKGPRLLIHYTSTLQPGIPSRFSGSGSGRDYSFSISNLEPEDIATYYCLKYDNLLWTFGGGTKLEIT	9.85
5F12 mouse anti-ErbB2 monoclonal antibody (antibody, mouse IgG1, V domains shown, also called 5F12E5A8; IgG 5F12) VH: QVQLQQSGAELARPGASVKMSCKASGYTFTSYTMHWIKQRPGQGLEWIGYINPSSSYTNYNQNFKDKATLTADKSSSTANMQLNSLTSEDSAVYYCARASSYSLDYWGQGTALTVSS VL: DIQMTQSPSSLSTSLGGKVTITCKASQDINKYIAWYQHKPGKGPRLLIHSTSTLYPGIPSRFSGSGSGKDYSFRITNLEPEDIATYYCLQYDNLLWTFGGGTKLGIR	9.81
4G6 mouse anti-ErbB2 monoclonal antibody (antibody, mouse IgG1, V domains shown, also called 4G6C9B8; IgG 4G6) VH: QVQLQQSGAELARPGASVKMSCKASGYTFTSYTMHWVKQRPGQGLEWIGYINPSSAYTNYNQKFKDKATLTADKSSSTANMQLNSLTSEDSAVYYCARASAYSLDYWGQGTALTVSS VL: DIQMTQSPSSLSASLGGKVTITCKASQDINKYIAWYQHKPGKGPRLLIHSTSTLYPGIPSRFSGSGSGRDYSFRITNLEPEDIATYYCLQYDNLLWTFGGGTKVGIR	10.68
5G9 mouse anti-ErbB2 monoclonal antibody (antibody, mouse IgG1, V domains shown, also called 5G91B42A3; IgG 5G9) VH: QVQLQQSGAELARPGASVKMSCKTSGYTFSSYTIHWVKQRPGQGLDWIGYINPSSDYTAYNQKFRDKATLTADQSSNTAYMQLSSLASADSAVYYCARASAFSLDFWGQGTTLTVSS VL: DIQMTQSPSSLSASLGGKVTISCKASHDIDRYIAWYQHKPGKGPRLLIHYTSTLQPGIPSRFSGSGSGRDYSFSISNLEPEDVATYYCLNYDNLLWTFGGGTKLEIT	9.30
